assay-info: Serum pharmacokinetics after intravenous administration in mice
condition-parameters: female, ND4 Swiss Webster, mouse, in vivo, 3 mg/kg
Positions of bridges follow the written chain, without caps; N, C: chain ends. Non-standard residues stand in square brackets, D forms with d. Residues, ends and D or L forms follow the SMILES beside them. *: point of attachment. X1 = CC[C@H](C)CCCCC(=O)*; Dab = NCC[C@H](N)C(=O)O
value-kind: half-life (min)
Dear colleague, please return just the value in min, with no unit written.

Input line: Please list half-life recorded for the molecule CC[C@H](C)CCCCC(=O)N[C@@H](CCN)C(=O)N[C@H](C(=O)N[C@@H](CCN)C(=O)N[C@H]1CCNC(=O)[C@H]([C@@H](C)O)NC(=O)[C@H](CCN)NC(=O)[C@H](CCN)NC(=O)[C@H](CC(C)C)NC(=O)[C@@H](Cc2ccccc2)NC(=O)[C@H](CCN)NC1=O)[C@@H](C)O [PB1, polymyxin B1] (X1-[Dab]T[Dab][Dab][Dab][dF]L[Dab][Dab]T; lactam 4-C)
Output line: 19.2
